# Assay details: NCI Yeast Anticancer Drug Screen. Data for the mec2-1 strain (AID 157)
# Condition notes: S. cerevisiae mec2-1 strain, at 50.0 µM (retest, dose inferred, filed as 5.0)
The panel holds about 79,000 compounds, 15% with a hit somewhere; the sample as a whole holds those more often. The source made the active and inactive calls. Rule as the data show it: active = growth inhibition above about 70%; inactive = the rest.
Tick one outcome: active, inactive

Examples with answers:
O=C1/C(=C/c2cccc([N+](=O)[O-])c2)Sc2scc(-c3ccc([N+](=O)[O-])cc3)[n+]21 = active
O=S(=O)(N=S(c1ccc(Cl)cc1)c1ccc(Cl)cc1)c1ccccc1 = inactive
O=S(O)CCCCCSSc1ccc(Cl)cc1 = active

Write down the call the test reported for this molecule. Item: "CCCCCCCCCCCCOCC[N+](CCO)(CCO)Cc1ccccc1" active

Test call for this molecule, please: "O=C1C=C(Cl)C(=O)C(Cl)=C1Cl" active

Can you look up the reported call for "CS(=O)(=O)OCCN(CCOS(C)(=O)=O)c1ccc(C=Nc2cccc(Br)c2)c(Cl)c1" for me? inactive

What did this assay record as the result for "CCCCCCCCCCCCNC(=O)c1ccc[n+](Cc2ccc(Cl)c(Cl)c2)c1" ? active
